# assay name: Cytotoxicity against human HEK293 cells assessed as reduction in cell viability at 100 uM after 72 hrs by MTT assay
# Assay type: cell-based
# experimental parameters: read-out: INH
Quick rule: cytotoxicity at 72 h, 100 µM of at least 30% means met, below that means not met.

{"cpd smiles": "O=C(O)CCCC(=O)Nc1ccc(-c2nc3cc(F)ccc3[nH]2)cc1", "discrete label": "not met"}
{"cpd smiles": "O=C(O)CCC(=O)Nc1ccc(-c2nc3ccccc3[nH]2)cc1", "discrete label": "not met"}
{"cpd smiles": "O=C(O)CCCC(=O)Nc1ccc(-c2nc3cc(Cl)ccc3[nH]2)cc1", "discrete label": "met"}
{"cpd smiles": "O=C(O)CCC(=O)Nc1ccc(-c2nc3cccnc3[nH]2)cc1", "discrete label": "met"}
{"cpd smiles": "O=C(O)CCCCC(=O)Nc1ccc(-c2nc3ccccc3[nH]2)cc1", "discrete label": "met"}
{"cpd smiles": "O=C(O)CCC(=O)Nc1ccc(-c2nc3cc([N+](=O)[O-])ccc3[nH]2)cc1", "discrete label": "not met"}

Does cytotoxicity at 72 h, 100 µM meet or surpass 30% for COC(=O)CCCC(=O)Nc1ccc(-c2nc3cc(Cl)ccc3[nH]2)cc1 ? not met

Now this one: O=C(O)CC(=O)Nc1ccc(-c2nc3cc([N+](=O)[O-])ccc3[nH]2)cc1 not met

Can you check COc1ccc2[nH]c(-c3ccc(NC(=O)COCC(=O)O)cc3)nc2c1 next? not met

Now give it for O=C(O)COCC(=O)Nc1ccc(-c2nc3ccccc3[nH]2)cc1 too. met

Similarly, O=C(O)COCC(=O)Nc1ccc(-c2nc3cc([N+](=O)[O-])ccc3[nH]2)cc1 ? met

Please do the same for O=C(O)CCCCC(=O)Nc1ccc(-c2nc3cc([N+](=O)[O-])ccc3[nH]2)cc1 as well. met

Now the molecule O=C(O)CSCC(=O)Nc1ccc(-c2nc3cc([N+](=O)[O-])ccc3[nH]2)cc1 not met

====

Reported cytotoxicity at 72 h, 100 µM by item:
# assay name: Cytotoxicity against human HEK293 cells assessed as reduction in cell viability at 100 uM after 72 hrs by MTT assay
# Type: cell-based
# experimental parameters: read-out: INH

{"cpd smiles": "O=C(O)COCC(=O)Nc1ccc(-c2nc3cc(F)ccc3[nH]2)cc1", "cytotoxicity at 72 h, 100 µM": "14.5%"}
{"cpd smiles": "O=C(O)CCCC(=O)Nc1ccc(-c2nc3cc([N+](=O)[O-])ccc3[nH]2)cc1", "cytotoxicity at 72 h, 100 µM": "27.2%"}
{"cpd smiles": "O=C(O)CCC(=O)Nc1ccc(-c2nc3cc(Cl)ccc3[nH]2)cc1", "cytotoxicity at 72 h, 100 µM": "31.7%"}
{"cpd smiles": "O=C(O)CCCC(=O)Nc1ccc(-c2nc3cccnc3[nH]2)cc1", "cytotoxicity at 72 h, 100 µM": "33.8%"}
{"cpd smiles": "COC(=O)CCCC(=O)Nc1ccc(-c2nc3cc(F)ccc3[nH]2)cc1", "cytotoxicity at 72 h, 100 µM": "33.8%"}

Could you now look at the following compound, please?
Reported cytotoxicity at 72 h, 100 µM for COc1ccc2[nH]c(-c3ccc(NC(=O)CCCC(=O)O)cc3)nc2c1 : what is it? 22.4%

====

# assay name: Cytotoxicity against human HEK293 cells assessed as reduction in cell viability at 100 uM after 72 hrs by MTT assay
# Format: cell-based
# experimental parameters: read-out: INH
Binary call on cytotoxicity at 72 h, 100 µM: 1 from 20% upward, -1 beneath that.

{"cpd smiles": "O=C(O)CSCC(=O)Nc1ccc(-c2nc3cc(F)ccc3[nH]2)cc1", "discrete label": 1}

Does COc1ccc2[nH]c(-c3ccc(NC(=O)CC(=O)O)cc3)nc2c1 have a reported cytotoxicity at 72 h, 100 µM of at least 20%? 1

Now try O=C(O)CCCCC(=O)Nc1ccc(-c2nc3cc(Cl)ccc3[nH]2)cc1 . 1

Also COC(=O)CCCC(=O)Nc1ccc(-c2nc3ccccc3[nH]2)cc1 , if possible. -1

Next record, please: COC(=O)CCCC(=O)Nc1ccc(-c2nc3cccnc3[nH]2)cc1 1

Source: ChEMBL document CHEMBL3352166
